biological target: SLK (human) (UniProt Q9H2G2); assay: radiometric filter-binding kinase assay, Kinase HotSpot; conditions: compound 0.5 µM; ATP 10 µM
Sequence (Q9H2G2 whole entry, looked up): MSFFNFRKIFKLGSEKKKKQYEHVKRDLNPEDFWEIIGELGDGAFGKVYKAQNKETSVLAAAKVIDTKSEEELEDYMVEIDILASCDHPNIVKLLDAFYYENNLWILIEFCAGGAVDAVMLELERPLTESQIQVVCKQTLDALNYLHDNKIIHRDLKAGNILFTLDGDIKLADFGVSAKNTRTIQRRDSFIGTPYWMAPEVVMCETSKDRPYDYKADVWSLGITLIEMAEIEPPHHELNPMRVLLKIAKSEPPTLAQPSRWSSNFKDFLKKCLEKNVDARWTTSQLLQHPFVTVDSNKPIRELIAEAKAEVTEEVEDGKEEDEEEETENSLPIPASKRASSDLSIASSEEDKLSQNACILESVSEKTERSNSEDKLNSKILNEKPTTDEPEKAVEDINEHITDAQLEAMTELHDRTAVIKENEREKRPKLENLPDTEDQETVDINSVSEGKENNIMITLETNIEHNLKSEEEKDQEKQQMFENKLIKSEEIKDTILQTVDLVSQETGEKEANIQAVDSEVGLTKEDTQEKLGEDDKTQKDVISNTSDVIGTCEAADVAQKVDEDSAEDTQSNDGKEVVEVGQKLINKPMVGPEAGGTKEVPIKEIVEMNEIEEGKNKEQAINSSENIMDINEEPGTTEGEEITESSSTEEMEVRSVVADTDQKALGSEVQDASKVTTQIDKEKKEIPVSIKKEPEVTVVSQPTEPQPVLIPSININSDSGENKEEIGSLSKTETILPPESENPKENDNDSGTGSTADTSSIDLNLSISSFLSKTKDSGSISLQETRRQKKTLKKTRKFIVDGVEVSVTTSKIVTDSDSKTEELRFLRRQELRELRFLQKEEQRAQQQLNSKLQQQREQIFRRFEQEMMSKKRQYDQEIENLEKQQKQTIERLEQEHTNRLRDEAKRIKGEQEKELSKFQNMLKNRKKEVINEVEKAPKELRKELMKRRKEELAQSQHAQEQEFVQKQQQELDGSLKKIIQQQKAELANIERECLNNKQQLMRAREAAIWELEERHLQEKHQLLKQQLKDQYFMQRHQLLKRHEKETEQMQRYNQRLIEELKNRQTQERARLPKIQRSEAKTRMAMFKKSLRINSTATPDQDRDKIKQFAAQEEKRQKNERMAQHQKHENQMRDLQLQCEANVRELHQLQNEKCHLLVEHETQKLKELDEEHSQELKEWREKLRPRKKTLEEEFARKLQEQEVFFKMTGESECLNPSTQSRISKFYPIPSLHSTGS
parameter_measured: residual activity (%)

molecule=CC(C)n1cnc2c(Nc3cccc(Cl)c3)nc(NCCO)nc21 value_units=% value=84.8
molecule=O=C(Nc1ccc(Cl)cc1)c1ccccc1NCc1ccncc1 value_units=% value=86.6
molecule="O=C(NC(NC(=S)Nc1ccc(F)c([N+](=O)[O-])c1)C(Cl)(Cl)Cl)C(c1ccccc1)c1ccccc1 (configuration not stated)" value_units=% value=95.2
molecule=Oc1ccc(-c2nc(-c3ccc(F)cc3)c(-c3ccncc3)[nH]2)cc1 value_units=% value=91.2
molecule=Nc1n[nH]c2nnc(-c3c(-c4ccccc4)nn4ccccc34)cc12 value_units=% value=94
molecule=Nc1nc(Nc2ccc(S(N)(=O)=O)cc2)nn1C(=O)c1c(F)cccc1F value_units=% value=19.1
molecule=Cc1ccc(NC(=O)c2ccc(CN3CCN(C)CC3)cc2)cc1Nc1nc(-c2cccnc2)cs1 value_units=% value=92.4
molecule=O=c1cc(N2CCNCC2)oc2c(-c3ccccc3)cccc12 value_units=% value=105
molecule=CCN1/C(=C/C(C)=O)Sc2ccc(OC)cc21 value_units=% value=86.8
molecule=C#Cc1cccc(Nc2ncnc3cc(OCCOC)c(OCCOC)cc23)c1 value_units=% value=42
molecule=O=C1Nc2ccccc2/C1=C\c1c(Cl)[nH]c2ccccc12 value_units=% value=93.5
molecule=CC(C)[C@H](CO)Nc1nc(Nc2cccc(Cl)c2)c2ncn(C(C)C)c2n1 value_units=% value=73.1
molecule=COc1ccc(-c2cnc3c(-c4ccsc4)cnn3c2)cc1 value_units=% value=86.3
molecule=CC(C)(C)c1nc2c3ccc(F)cc3c3c(=O)[nH]ccc3c2[nH]1 value_units=% value=91.4
molecule=Clc1ccc(Nc2nnc(Cc3ccncc3)c3ccccc23)cc1 value_units=% value=94.2
molecule=CCCNC(=O)Nc1ccc(Oc2ncnc3cc(OC)c(OC)cc23)cc1Cl value_units=% value=80
molecule="CS(=O)c1ccc(-c2nc(-c3ccc(F)cc3)c(-c3ccncc3)[nH]2)cc1 (configuration not stated)" value_units=% value=94.1
molecule=Cc1cc2ncc(-c3ccccc3)nc2cc1C value_units=% value=91.9
molecule=O=C1Nc2cc(Br)ccc2/C1=C1/Nc2ccccc2/C1=N\O value_units=% value=56.1
molecule=COc1cc2nccc(Oc3ccc(NC(=S)NC(=O)c4ccccc4C)cc3)c2cc1OC value_units=% value=6.2
molecule=O=C1Cc2c([nH]c3ccc([N+](=O)[O-])cc23)-c2ccccc2N1 value_units=% value=96.2
molecule=Nc1nc(Nc2ccc(S(N)(=O)=O)cc2)nn1C(=S)Nc1c(F)cccc1F value_units=% value=4.58

###

target: VRK1 (human); experiment: radiometric filter-binding kinase assay, Kinase HotSpot; settings: compound 0.5 µM; ATP 10 µM
parameter_measured: residual activity (%)

structure_smiles=COc1cc2ncnc(Nc3ccc(F)c(Cl)c3)c2cc1OCCCN1CCOCC1 study_system="VRK1 (human)" value=99.3
structure_smiles=O=C1Cc2c([nH]c3ccc([N+](=O)[O-])cc23)-c2ccccc2N1 study_system="VRK1 (human)" value=90.8
structure_smiles=NC(=O)c1ccc(N(C(N)=O)c2c(F)cccc2F)nc1-c1ccc(F)cc1F study_system="VRK1 (human)" value=104
structure_smiles=CC(C)(C)c1nc2c3ccc(F)cc3c3c(=O)[nH]ccc3c2[nH]1 study_system="VRK1 (human)" value=82.2
structure_smiles=CC(C)[C@H](CO)Nc1nc(Nc2cccc(Cl)c2)c2ncn(C(C)C)c2n1 study_system="VRK1 (human)" value=99.5

###

molecular target: LTK (human); experiment: radiometric filter-binding kinase assay, Kinase HotSpot; conditions: compound 0.5 µM; ATP 10 µM
Consider the following compounds and their measured residual activity readings.
parameter_measured: residual activity (%)

compound=CCOc1nc(NC(=O)Cc2cc(OC)ccc2OC)cc(N)c1C#N study_system="LTK (human)" parameter_measured="residual activity" value=97.3
compound=CCN1/C(=C/C(C)=O)Sc2ccc(OC)cc21 study_system="LTK (human)" parameter_measured="residual activity" value=87.1
compound="CSc1nc(-c2ccc(F)cc2)c(-c2ccnc(NC(C)c3ccccc3)c2)[nH]1 (stereo not given)" study_system="LTK (human)" parameter_measured="residual activity" value=83.6
compound=CC(C)n1cnc2c(Nc3cccc(Cl)c3)nc(NCCO)nc21 study_system="LTK (human)" parameter_measured="residual activity" value=85.3
compound=Nc1n[nH]c2nnc(-c3c(-c4ccccc4)nn4ccccc34)cc12 study_system="LTK (human)" parameter_measured="residual activity" value=90.5
compound=O=c1cc(-c2cccc3c2Sc2ccccc2S3)oc(N2CCOCC2)c1 study_system="LTK (human)" parameter_measured="residual activity" value=94.1
compound="CS(=O)c1ccc(-c2nc(-c3ccc(F)cc3)c(-c3ccncc3)[nH]2)cc1 (stereo not given)" study_system="LTK (human)" parameter_measured="residual activity" value=101
compound=O=C1Nc2ccc3ncsc3c2/C1=C/c1c[nH]cn1 study_system="LTK (human)" parameter_measured="residual activity" value=83
compound=O=C1Nc2cc(Br)ccc2/C1=C1/Nc2ccccc2/C1=N\O study_system="LTK (human)" parameter_measured="residual activity" value=89.3
compound=Cc1ccc(NC(=O)c2ccc(CN3CCN(C)CC3)cc2)cc1Nc1nc(-c2cccnc2)cs1 study_system="LTK (human)" parameter_measured="residual activity" value=102

###

biological target: CDK9 CCNK (human) (UniProt O75909+P50750); experiment: radiometric filter-binding kinase assay, Kinase HotSpot; conditions: compound 0.5 µM; ATP 10 µM
Sequence (O75909 whole entry, looked up): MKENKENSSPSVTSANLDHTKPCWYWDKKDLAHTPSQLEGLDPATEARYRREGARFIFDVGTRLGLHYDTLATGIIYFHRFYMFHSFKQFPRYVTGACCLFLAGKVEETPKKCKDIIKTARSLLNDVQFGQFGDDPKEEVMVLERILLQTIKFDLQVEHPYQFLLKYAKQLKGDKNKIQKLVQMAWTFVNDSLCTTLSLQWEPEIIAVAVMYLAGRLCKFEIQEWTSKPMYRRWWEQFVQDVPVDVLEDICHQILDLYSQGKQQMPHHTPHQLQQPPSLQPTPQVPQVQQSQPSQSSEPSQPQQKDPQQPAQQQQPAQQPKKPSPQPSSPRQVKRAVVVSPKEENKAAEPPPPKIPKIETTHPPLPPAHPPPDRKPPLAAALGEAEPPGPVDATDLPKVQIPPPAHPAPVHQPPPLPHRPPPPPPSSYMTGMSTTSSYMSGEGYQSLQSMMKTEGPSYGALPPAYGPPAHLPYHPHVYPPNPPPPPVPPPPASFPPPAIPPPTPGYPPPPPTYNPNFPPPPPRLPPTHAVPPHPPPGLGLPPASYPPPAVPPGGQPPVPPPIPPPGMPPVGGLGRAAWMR
Sequence (P50750 whole entry, looked up): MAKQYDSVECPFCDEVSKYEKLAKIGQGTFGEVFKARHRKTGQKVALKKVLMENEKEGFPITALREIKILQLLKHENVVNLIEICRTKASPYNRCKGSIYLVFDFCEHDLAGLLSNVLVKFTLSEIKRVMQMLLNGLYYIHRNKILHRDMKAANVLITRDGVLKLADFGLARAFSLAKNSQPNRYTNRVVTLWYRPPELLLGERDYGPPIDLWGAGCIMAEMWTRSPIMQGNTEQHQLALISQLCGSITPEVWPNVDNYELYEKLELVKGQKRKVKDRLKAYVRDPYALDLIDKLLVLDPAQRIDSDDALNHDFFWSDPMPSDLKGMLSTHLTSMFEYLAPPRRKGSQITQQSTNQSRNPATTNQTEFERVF
parameter_measured: residual activity

compound=CC(C)n1cnc2c(Nc3cccc(Cl)c3)nc(NCCO)nc21 value=86.9%
compound=O=C1Nc2cc(Br)ccc2/C1=C1/Nc2ccccc2/C1=N\O value=37.5%
compound=NC(=O)c1ccc(-c2nc(-c3ccccn3)c(-c3ccc4c(c3)OCCO4)[nH]2)cc1 value=97.1%
compound=O=c1cc(N2CCNCC2)oc2c(-c3ccccc3)cccc12 value=94.2%
compound=C#Cc1cccc(Nc2ncnc3cc(OCCOC)c(OCCOC)cc23)c1 value=102%
compound="O=C(NC(NC(=S)Nc1ccc(F)c([N+](=O)[O-])c1)C(Cl)(Cl)Cl)C(c1ccccc1)c1ccccc1 (configuration not stated)" value=110%
compound=NC(=O)c1ccc(N(C(N)=O)c2c(F)cccc2F)nc1-c1ccc(F)cc1F value=106%

###

target: HIPK4 (human) (UniProt Q8NE63); assay: radiometric filter-binding kinase assay, Kinase HotSpot; details: compound 0.5 µM; ATP 10 µM
Sequence (Q8NE63 whole entry, looked up): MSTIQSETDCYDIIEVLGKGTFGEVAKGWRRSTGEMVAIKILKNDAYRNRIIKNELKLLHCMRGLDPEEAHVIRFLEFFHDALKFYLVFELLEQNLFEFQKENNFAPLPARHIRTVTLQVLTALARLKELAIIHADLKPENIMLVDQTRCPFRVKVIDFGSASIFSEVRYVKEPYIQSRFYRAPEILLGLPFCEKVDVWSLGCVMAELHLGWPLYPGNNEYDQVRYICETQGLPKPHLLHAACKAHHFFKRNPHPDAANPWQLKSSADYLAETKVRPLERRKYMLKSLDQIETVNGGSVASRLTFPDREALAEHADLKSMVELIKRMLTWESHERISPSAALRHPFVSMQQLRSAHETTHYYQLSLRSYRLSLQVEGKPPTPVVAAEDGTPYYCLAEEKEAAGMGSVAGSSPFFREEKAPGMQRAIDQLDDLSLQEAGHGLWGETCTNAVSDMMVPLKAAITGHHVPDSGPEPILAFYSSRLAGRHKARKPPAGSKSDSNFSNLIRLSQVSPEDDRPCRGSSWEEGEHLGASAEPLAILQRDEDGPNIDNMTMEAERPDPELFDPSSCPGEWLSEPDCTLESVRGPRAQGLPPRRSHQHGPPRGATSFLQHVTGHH
parameter_measured: residual activity (%)

molecule=CC(C)n1cnc2c(Nc3cccc(Cl)c3)nc(NCCO)nc21 study_system="HIPK4 (human) (UniProt Q8NE63)" value=94.6
molecule=O=C1Cc2c([nH]c3ccc([N+](=O)[O-])cc23)-c2ccccc2N1 study_system="HIPK4 (human) (UniProt Q8NE63)" value=103
molecule=CCCNC(=O)Nc1ccc(Oc2ncnc3cc(OC)c(OC)cc23)cc1Cl study_system="HIPK4 (human) (UniProt Q8NE63)" value=93.5
molecule="CS(=O)c1ccc(-c2nc(-c3ccc(F)cc3)c(-c3ccncc3)[nH]2)cc1 (configuration not stated)" study_system="HIPK4 (human) (UniProt Q8NE63)" value=93.5
molecule=CC(C)(C)c1nc2c3ccc(F)cc3c3c(=O)[nH]ccc3c2[nH]1 study_system="HIPK4 (human) (UniProt Q8NE63)" value=107
molecule="O=C(NC(NC(=S)Nc1ccc(F)c([N+](=O)[O-])c1)C(Cl)(Cl)Cl)C(c1ccccc1)c1ccccc1 (configuration not stated)" study_system="HIPK4 (human) (UniProt Q8NE63)" value=104
molecule="CSc1nc(-c2ccc(F)cc2)c(-c2ccnc(NC(C)c3ccccc3)c2)[nH]1 (configuration not stated)" study_system="HIPK4 (human) (UniProt Q8NE63)" value=95.2
molecule=O=c1cc(N2CCNCC2)oc2c(-c3ccccc3)cccc12 study_system="HIPK4 (human) (UniProt Q8NE63)" value=96.9
molecule=Nc1nc(Nc2ccc(S(N)(=O)=O)cc2)nn1C(=S)Nc1c(F)cccc1F study_system="HIPK4 (human) (UniProt Q8NE63)" value=50.6
molecule=Oc1ccc(-c2nc(-c3ccc(F)cc3)c(-c3ccncc3)[nH]2)cc1 study_system="HIPK4 (human) (UniProt Q8NE63)" value=89.7
molecule=COc1cc2nccc(Oc3ccc(NC(=S)NC(=O)c4ccccc4C)cc3)c2cc1OC study_system="HIPK4 (human) (UniProt Q8NE63)" value=86
molecule=NC(=O)c1ccc(N(C(N)=O)c2c(F)cccc2F)nc1-c1ccc(F)cc1F study_system="HIPK4 (human) (UniProt Q8NE63)" value=90.5
molecule=Nc1nc(Nc2ccc(S(N)(=O)=O)cc2)nn1C(=O)c1c(F)cccc1F study_system="HIPK4 (human) (UniProt Q8NE63)" value=67.7
molecule=CC(C)[C@H](CO)Nc1nc(Nc2cccc(Cl)c2)c2ncn(C(C)C)c2n1 study_system="HIPK4 (human) (UniProt Q8NE63)" value=88.7
molecule=Clc1ccc(Nc2nnc(Cc3ccncc3)c3ccccc23)cc1 study_system="HIPK4 (human) (UniProt Q8NE63)" value=95.9
molecule=O=C1Nc2ccccc2/C1=C\c1c(Cl)[nH]c2ccccc12 study_system="HIPK4 (human) (UniProt Q8NE63)" value=98.8
molecule=O=C1Nc2cc(Br)ccc2/C1=C1/Nc2ccccc2/C1=N\O study_system="HIPK4 (human) (UniProt Q8NE63)" value=106
molecule=COc1cc2ncnc(Nc3ccc(F)c(Cl)c3)c2cc1OCCCN1CCOCC1 study_system="HIPK4 (human) (UniProt Q8NE63)" value=90.4
molecule=COc1ccc(-c2cnc3c(-c4ccsc4)cnn3c2)cc1 study_system="HIPK4 (human) (UniProt Q8NE63)" value=108
molecule=Cc1cc2ncc(-c3ccccc3)nc2cc1C study_system="HIPK4 (human) (UniProt Q8NE63)" value=120
molecule=CCN1/C(=C/C(C)=O)Sc2ccc(OC)cc21 study_system="HIPK4 (human) (UniProt Q8NE63)" value=94
molecule=Cc1ccc(NC(=O)c2ccc(CN3CCN(C)CC3)cc2)cc1Nc1nc(-c2cccnc2)cs1 study_system="HIPK4 (human) (UniProt Q8NE63)" value=101

meta.source: the kinase profiling compilation of Christmann-Franck et al. (2016)
